# System: FD (familial dysautomonia) IKBKAP minigene, exon 20 inclusion, in HEK293T cells
# TEST_PROTOCOL: Primary splicing assay (FD IKBKAP minigene, Firefly/Renilla luciferase reporter in HEK293T)
# Format: cell-based, human
# PROTOCOL_CONDITIONS: Homo sapiens, HEK-293T; max efficacy in Primary Assay; Firefly/Renilla ratio, kinetin and DMSO as positive and negative controls; 24 hours of treatment; read-out: Emax (%)
For each entry below, report its Emax value.
Report the value in % with no unit label.

Could you share which Emax value was measured for Cc1cc2c(NCc3ccncn3)nc(Cl)nc2[nH]1 ?
143

Could you share which Emax value was measured for Clc1nc(NCc2ccnc3ccccc23)c2nc[nH]c2n1 ?
22

Could you share which Emax value was measured for Clc1nc(NCc2ccncc2)c2nc[nH]c2n1 ?
174

Could you share which Emax value was measured for CC(C)Oc1nc2c(NCc3ccco3)nc(Cl)nc2[nH]1 ?
147

Could you share which Emax value was measured for FC(F)(F)c1cccc(Nc2ncnc3[nH]cnc23)c1 ?
16

Could you share which Emax value was measured for Clc1nc(NCc2ccncn2)c2nc(C3CCC3)[nH]c2n1 ?
83

Could you share which Emax value was measured for Clc1nc(NCc2nccs2)c2nc(OCc3ncco3)[nH]c2n1 ?
140

Could you share which Emax value was measured for CC(F)(F)COc1nc2c(NCc3cscn3)nc(Cl)nc2[nH]1 ?
233

Could you share which Emax value was measured for Clc1nc(NCc2ccco2)c2ccsc2n1 ?
152

Could you share which Emax value was measured for Clc1nc(NCc2ccncn2)c2nc(OCc3nccs3)[nH]c2n1 ?
220

Could you share which Emax value was measured for CNc1nc2c(NCc3ccncc3)nc(Cl)nc2[nH]1 ?
150

Could you share which Emax value was measured for Cc1cn(CCO)c2nc(Cl)nc(NCc3ccncc3)c12 ?
189

Could you share which Emax value was measured for c1csc(CNc2[nH]cnc3ncnc2-3)c1 ?
44

Could you share which Emax value was measured for CC(C)(C)COc1nc2c(NCc3ccco3)nc(Cl)nc2[nH]1 ?
84.1

Could you share which Emax value was measured for Clc1nc(NCc2nccs2)c2nc(C3CC3)[nH]c2n1 ?
121

Could you share which Emax value was measured for OCCn1cnc2c(NCc3ccco3)cc(Cl)nc21 ?
145

Could you share which Emax value was measured for OCCn1ccc2c(NCc3ccco3)ncnc21 ?
64

Could you share which Emax value was measured for Clc1nc(NCc2cc3ccccc3o2)c2nc[nH]c2n1 ?
68

Could you share which Emax value was measured for Cc1cnccc1CNc1nc(Cl)nc2[nH]ccc12 ?
105

Could you share which Emax value was measured for CN(C)CCn1ccc2c(NCc3ccco3)nc(Cl)nc21 ?
27

Could you share which Emax value was measured for Cc1cn(CCO)c2nc(Cl)nc(NCc3nccs3)c12 ?
225

Could you share which Emax value was measured for CC(C)COc1nc2c(NCc3nccs3)nc(Cl)nc2[nH]1 ?
155

Could you share which Emax value was measured for Fc1cccc(CCNc2ncnc3[nH]cnc23)c1 ?
98
